Origin of measurements: patent US20180171001A1

measurementTarget: Env of HIV-1 strain 231965.c1 (HIV-1)
protocolDetails: cell-based or functional assay
Classify by measured neutralization IC50: yes (1) if it is equal to or exceeds 1 µg/mL, no (0) if it is smaller.

{"columns": ["binder", "assignedCategory"],
 "data": [
  ["γ46κ5 (antibody, V domains shown) VH: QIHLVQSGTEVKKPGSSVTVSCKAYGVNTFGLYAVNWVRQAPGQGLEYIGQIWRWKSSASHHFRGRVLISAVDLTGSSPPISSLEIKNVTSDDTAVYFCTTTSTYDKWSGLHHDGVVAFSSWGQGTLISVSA VL: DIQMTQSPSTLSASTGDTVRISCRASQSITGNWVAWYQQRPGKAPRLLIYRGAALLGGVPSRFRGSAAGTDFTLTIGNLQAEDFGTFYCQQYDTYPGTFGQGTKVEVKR", "no (0)"],
  ["8ANC3044 (antibody, V domains shown) VH: QIHLVQSGTEVRKPGSSVTVSCKAYGVNTFGLYAVNWVRQAPGQSLEYIGQIWRWKSSASHHFRGRVLISAVDLTGSSPPISSLEIKNLTSDDTAVYFCTTTSTYDKWSGLHHDGVMAFSSWGQGTLISVSA VL: DIQMTQSPSTLSASIGDTVRISCRASQSITGNWVAWYQQRPGKAPRLLIYRGAALLGGVPSRFSGSAAGTDFTLTIGNLQTEDFGTFYCQQYDTYPGTFGQGTKVEVKR", "yes (1)"],
  ["8ANC3430 (antibody, V domains shown) VH: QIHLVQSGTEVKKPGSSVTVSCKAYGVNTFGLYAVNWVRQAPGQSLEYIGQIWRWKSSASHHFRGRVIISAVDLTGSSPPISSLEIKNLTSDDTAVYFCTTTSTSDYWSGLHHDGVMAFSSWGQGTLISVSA VL: DIQMTQSPSTLSASVGDTVRISCRASQSITGGWLAWYHQRPGKAPRLLIYRGSRLLGGVPSRFSGSAAGTDFTLTIANLQAEDFGTFYCQQYDTYPGTFGQGTKVEVKR", "yes (1)"],
  ["γ3κ11 (antibody, V domains shown) VH: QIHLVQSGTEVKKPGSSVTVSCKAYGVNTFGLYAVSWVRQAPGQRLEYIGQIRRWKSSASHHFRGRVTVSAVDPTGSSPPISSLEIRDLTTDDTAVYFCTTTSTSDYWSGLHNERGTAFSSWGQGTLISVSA VL: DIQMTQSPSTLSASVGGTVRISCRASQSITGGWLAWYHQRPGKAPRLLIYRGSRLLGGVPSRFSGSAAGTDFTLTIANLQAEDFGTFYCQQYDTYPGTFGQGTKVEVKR", "no (0)"],
  ["γ15κ18 (antibody, V domains shown) VH: QIHLVQSGTEVKKPGSSVTVSCKAYGVNTFGLYAVNWVRQAPGQSLEYIGQIWRWKSSASHHFRGRVIISAVDLTGSSPPISSLEIKNLTSDDTAVYFCTTASTYDKWSGLHHDGVMAFSSWGQGTLISVSA VL: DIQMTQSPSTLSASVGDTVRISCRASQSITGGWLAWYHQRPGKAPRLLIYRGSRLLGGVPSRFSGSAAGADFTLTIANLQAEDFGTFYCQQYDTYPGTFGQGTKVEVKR", "yes (1)"]
]}
